Tested on: SF-539 CNS
Assay: NCI-60 one-dose screen, 48 h
Details: 10 µM unless noted
Compounds without any hit were thinned out: in the full panel of roughly 83,000, 20% have a hit. Active and inactive are the calls of the source. How the source made its calls: active means growth percent below 10; inactive means the rest.
Tick one outcome: yes (1) for active, no (0) for inactive

As a guide, the following entries are already answered.
[[record]]
molecule = "CCCCCCCCCC[N+](C)(C)N"
category_label = "no (0)"

[[record]]
molecule = "CCOC(=O)c1c(C)oc2ncnc(Nc3ccc(NC(=O)Nc4ccc(CC)cc4)cc3)c12"
category_label = "no (0)"

[[record]]
molecule = "CCCCCCCCCCC1OC(C)CC(C)O1 (stereo not drawn)"
category_label = "no (0)"


Q: How did this test come out for COc1ccc2c(c1)cn1c3ccc(O)cc3[nH]c(=O)c21 ?
A: yes (1)

* * *

Test system: SF-268 CNS
Test: NCI-60 one-dose screen, 48 h (100 = growth as untreated, 0 = no growth, -100 = all killed)
Details: 10 µM unless noted
About 83,000 compounds went through this panel and 20% of them were active in at least one assay; those are over-represented in the sample as a whole. The source made the active and inactive calls. The calls were made as follows: active = growth percent below 10; inactive = the rest.
MEASUREMENT LABEL: growth

Answered examples (4):
[[record]]
compound = "CNc1ccc(Nc2ccc(S(=O)(=O)O)cc2)c2c1C(=O)c1ccccc1C2=O"
target_system = "SF-268 CNS"
measurement_label = "growth"
result = "114% (inactive)"

[[record]]
compound = "C=CCC(CCC(CC=C)C(=O)OCC)C(=O)OCC (stereo not given)"
target_system = "SF-268 CNS"
measurement_label = "growth"
result = "105% (inactive)"

[[record]]
compound = "Oc1ccc([S+](c2ccc(O)cc2)c2ccc(O)cc2)cc1"
target_system = "SF-268 CNS"
measurement_label = "growth"
result = "114% (inactive)"

[[record]]
compound = "COc1ccc(/C=N/c2cc(C(C)(C)C)nn2-c2ccccc2)cc1"
target_system = "SF-268 CNS"
measurement_label = "growth"
result = "101% (inactive)"


Now examine the next entry.
Q: Write down the reported growth (system: SF-268 CNS) of CC(=O)c1nn(-c2ccc(C)cc2)cc1C(=O)c1cc2c(ccc3ccccc32)oc1=O
A: 99.5% (inactive)

* * *

Below, each entry is listed with its recorded growth.
Tested on: HCT-116 colon
Experiment: NCI-60 one-dose screen, 48 h (100 = growth as untreated, 0 = no growth, -100 = all killed)
Settings: 10 µM unless noted
Experimental: Growth inhibition of the HCT-116 human tumor cell line is measured as a screen for anti-cancer activity. Cells are grown in 96 well plates and exposed to the test compound for 48 hours. Compounds are tested at a single concentration, which is 10^-5 M for most compounds. The reported endpoint is percent growth (GI% or GIPRCNT), where numbers from 0 - 100% represent growth inhibition, and numbers from -100% - 0 represent cell death. For example, a value of 40 represents 60% growth inhibition. […]
This is part of a sample that, as a whole, favours compounds with a hit. Of some 83,000 tested, about 20% had one in any assay.
Write the answer as a number in %, unit excluded.

Worked cases, growth given:
[[record]]
compound = "CCCNC(=O)Oc1ccc(/C(=C(/CC)Cc2ccccc2)c2ccc(OCCN(CC)CC)cc2)cc1"
measurement_label = "growth"
unit_text = "%"
result = 49.1

[[record]]
compound = "COc1cc([C@@H]2c3cc4c(cc3[C@H](O)[C@H]3COC[C@@H]23)OCO4)cc(OC)c1OC"
measurement_label = "growth"
unit_text = "%"
result = 66.7

[[record]]
compound = "CCC(C)CC(N)O (configuration not stated)"
measurement_label = "growth"
unit_text = "%"
result = 111

[[record]]
compound = "COc1cc(-c2cc3cnccc3c3nc(N)c4ccncc4c23)cc(OC)c1OC"
measurement_label = "growth"
unit_text = "%"
result = 35.1


Q: Identify measured growth corresponding to Cc1nc(NC(=O)NC2CCCCC2)sc1C(=O)NN
A: 83.8

Q: Please give the documented growth of CC(O)CN(CCO)CCN(CCO)CC(C)O (configuration not stated)
A: 104

Q: Give growth for the following compound: COc1cc(N)c2nccc(C)c2c1OC
A: 102

Q: Provide only the value of recorded growth for COc1cc2c(c(OC)c1OC)C(=O)CC(c1cccc(C(=O)Nc3cccc(Br)c3)c1)O2 (configuration not stated)
A: 58.1

Q: Give growth for CCCCCCCCCc1cc[n+](CC(=O)c2ccc([N+](=O)[O-])cc2)cc1
A: -34.5

* * *

System: 786-0 renal
Test: NCI-60 one-dose screen, 48 h
Settings: 10 µM unless noted
Compounds without any hit were thinned out: in the full panel of roughly 83,000, 20% have a hit. The source made the active and inactive calls. How the source made its calls: active means growth percent below 10; inactive means the rest.
Answer with one of the outcomes given here: active, inactive

These recorded examples may help you get a feel for the data.
[[record]]
molecule = "CC(C)(C)C(=O)CCCCCCCC/C=C/CCCC(O)c1ccco1 (stereo not drawn)"
category_label = "inactive"

[[record]]
molecule = "CCCCN(CCC)CCCCCCCCCCN1CCCc2ccccc21"
category_label = "inactive"


Q: Kindly provide the recorded test outcome for the following molecule: Clc1ccc(N/N=C(/c2ccccc2)c2ccccn2)nc1
A: inactive

Q: # lookup: test call for CNCCCNCCCCNCCCN1C(=O)c2ccc3c4c(ccc(c24)C1=O)C(=O)N(CCCNCc1ccccc1OC)C3=O
A: inactive

* * *

System: UACC-257 melanoma
Assay: NCI-60 one-dose screen, 48 h (100 = growth as untreated, 0 = no growth, -100 = all killed)
Conditions: 10 µM unless noted
Compounds without any hit were thinned out: in the full panel of roughly 83,000, 20% have a hit.
growth strictly less than 90% = MET. Otherwise NOT MET.

Completed entries (count: 3):
[[record]]
compound = "COC(=O)c1ccc2[nH]c(O)c(C(=Nc3ccc(N(C)C(=O)CN4CCN(C)CC4)cc3)c3ccc(C)cc3)c2c1"
target_system = "UACC-257 melanoma"
category_label = "MET"

[[record]]
compound = "CCCC(=O)Nc1ccccc1C(=O)O"
target_system = "UACC-257 melanoma"
category_label = "MET"

[[record]]
compound = "Cc1ccc2c(c1)C(=O)CCS2"
target_system = "UACC-257 melanoma"
category_label = "NOT MET"


Query compound follows.
Q: Strictly below 90% in growth? N=C(N)c1ccc(-c2ccc(-c3cc(Cl)cc(Cl)c3)s2)cc1
A: MET

* * *

Tested on: HCC-2998 colon
Assay: NCI-60 one-dose screen, 48 h (100 = growth as untreated, 0 = no growth, -100 = all killed)
Conditions: 10 µM unless noted
The panel holds about 83,000 compounds, 20% with a hit somewhere; the sample as a whole holds those more often. Activity calls are given as the source filed them. Rule for the calls: active = growth percent below 10; inactive = the rest.
The following compounds are shown together with reported growth values.

Example cases with answers are listed next.
[[record]]
compound = "COc1cc2ncnc(Nc3ccc4c(cnn4C(=O)Nc4ccccc4)c3)c2cc1OC"
result = "87.4% (inactive)"

[[record]]
compound = "COc1ccc(CN2C(=O)/C(=C\\C(=O)c3ccc(OCCN4CCCCC4)cc3)c3ccccc32)cc1"
result = "94.9% (inactive)"

[[record]]
compound = "C=C(NC(=O)[C@H](C(C)C)N(C)c1cccc2[nH]ccc12)C(=O)OC"
result = "113% (inactive)"

[[record]]
compound = "N#Cc1ccc(NC2c3ccccc3CC2O)cc1 (centres undefined)"
result = "105% (inactive)"


Q: Tell us which growth value is on record for O=C(CCl)c1ccc2c(c1)CCCC2
A: 111% (inactive)

Q: // Input: O=C(Oc1ccccc1)c1ccccc1Cl . Output its growth only.
A: 108% (inactive)

Q: Give the reported value of growth for this record: C/C=C(/C)C(=O)OC1C=C(CO)C(=O)C(OC(=O)C(C)(O)C(C)Cl)C1C(C)C (centres undefined)
A: -76.3% (active)

Q: Using known records, supply growth for O=C(CCCC(=O)Nc1ccc(Cn2nnc3cc(Cl)c(Cl)cc32)cc1)Nc1ccc(CN2N=NC3C=C(Cl)C(Cl)=CC32)cc1 (centres undefined)
A: 90.2% (inactive)

* * *

Recorded growth for the following compounds
Test system: ACHN renal
Experiment: NCI-60 one-dose screen, 48 h (100 = growth as untreated, 0 = no growth, -100 = all killed)
Conditions: 10 µM unless noted
Method: Growth inhibition of the ACHN human tumor cell line is measured as a screen for anti-cancer activity. Cells are grown in 96 well plates and exposed to the test compound for 48 hours. Compounds are tested at a single concentration, which is 10^-5 M for most compounds. The reported endpoint is percent growth (GI% or GIPRCNT), where numbers from 0 - 100% represent growth inhibition, and numbers from -100% - 0 represent cell death. For example, a value of 40 represents 60% growth inhibition. […]
Compounds without any hit were thinned out: in the full panel of roughly 83,000, 20% have a hit.
Numeric answer only, unit % assumed.

Recorded results for 3 compounds are shown here.
[[record]]
compound = "CCOC(=O)C(C)C(C)(O)c1ccccc1 (centres undefined)"
measurement_label = "growth"
result = 111

[[record]]
compound = "CN(C)CCOC(=O)C(C)(C)C"
measurement_label = "growth"
result = 98.1

[[record]]
compound = "CC(C)OC(=O)c1ccc2n1CCCc1cnc(Nc3ccccc3)nc1-2"
measurement_label = "growth"
result = 74.8


Q: Param request: growth | system ACHN renal | item CC(=O)N1CCN(CCNC(=O)n2cc(-c3ccncc3)c(-c3cc(O)cc(Cl)c3)n2)CC1
A: 76.9
